Measured values drawn from paper PMC4666649 for this set.

# experimentalTarget: hA3 AR (Homo sapiens, UniProt P0DMS8)
# Construct: expressed in transfected cells; host or cells: CHO cells, stably transfected
# experimentSummary: Radioligand binding at human A3 ARs, displacement of [3H]HEMADO, membranes of transfected CHO cells
# measurementParameters: ratio of Ki values; for reference compounds from literature affinities (Borea et al. unless otherwise indicated)
Structures can show the parent of a compound that is named as a salt.
testReadout: Ki, hA1/hA3 (selectivity)

INSERT INTO measurements (compound, testresult) VALUES
  ('CCCn1c(=O)c2[nH]c(-c3cnn(Cc4cccc(F)c4)c3)nc2n(CCC)c1=O [compound 36, reference compound]', 1),
  ('Cn1cc2c(nc(NC(=O)Nc3ccncc3)n3nc(-c4ccco4)nc23)n1 [MRE3005F20 (HCl), reference compound]', 35000);

[A] Cn1c(=O)c2[nH]c(-c3cnn(Cc4cccc(C(F)(F)F)c4)c3)nc2n(C)c1=O [compound 1, reference compound]
[B] CCCn1c(=O)c2[nH]c(-c3cnn(Cc4cccc(C(F)(F)F)c4)c3)nc2n(CCC)c1=O [compound 33, reference compound]
Of A versus B , which is the one with smaller reported Ki, hA1/hA3 (selectivity)? Mark your answer with the label of the selected entry. A

====

# experimentalTarget: hA1 AR (Homo sapiens, UniProt P30542)
# Sequence (P30542 whole entry): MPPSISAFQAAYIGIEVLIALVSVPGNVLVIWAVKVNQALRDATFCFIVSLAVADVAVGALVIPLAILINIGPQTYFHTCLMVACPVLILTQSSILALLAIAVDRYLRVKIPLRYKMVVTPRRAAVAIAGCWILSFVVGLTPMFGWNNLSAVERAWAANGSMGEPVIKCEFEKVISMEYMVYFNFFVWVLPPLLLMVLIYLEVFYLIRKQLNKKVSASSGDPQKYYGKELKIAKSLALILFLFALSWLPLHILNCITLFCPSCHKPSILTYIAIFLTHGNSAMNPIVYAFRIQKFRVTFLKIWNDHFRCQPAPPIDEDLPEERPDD
# experimentSummary: Radioligand binding at human A1 ARs, displacement of [3H]CCPA, membranes of transfected CHO cells
# measurementParameters: displacement of specific [3H]-CCPA binding, CHO cells, n = 3–6; geometric means with 95% confidence limits; read-out: hA1 AR (Ki nM)
testReadout: Ki (nM)

[P] Cn1cc2c(nc(N)n3nc(-c4cnn(Cc5cccc(C(F)(F)F)c5)c4)nc23)n1 [compound 3]
[Q] Cn1cc2c(nc(NC(=O)c3ccccc3)n3nc(-c4cnn(Cc5cccc(C(F)(F)F)c5)c4)nc23)n1 [compound 5]
// returns P or Q , whichever has the lower Ki Your answer should be the label of the entry you select. P

====

# experimentalTarget: hA2A AR (Homo sapiens, UniProt P29274)
# Construct: expressed in transfected cells; host or cells: CHO cells, stably transfected
# Sequence (P29274 whole entry): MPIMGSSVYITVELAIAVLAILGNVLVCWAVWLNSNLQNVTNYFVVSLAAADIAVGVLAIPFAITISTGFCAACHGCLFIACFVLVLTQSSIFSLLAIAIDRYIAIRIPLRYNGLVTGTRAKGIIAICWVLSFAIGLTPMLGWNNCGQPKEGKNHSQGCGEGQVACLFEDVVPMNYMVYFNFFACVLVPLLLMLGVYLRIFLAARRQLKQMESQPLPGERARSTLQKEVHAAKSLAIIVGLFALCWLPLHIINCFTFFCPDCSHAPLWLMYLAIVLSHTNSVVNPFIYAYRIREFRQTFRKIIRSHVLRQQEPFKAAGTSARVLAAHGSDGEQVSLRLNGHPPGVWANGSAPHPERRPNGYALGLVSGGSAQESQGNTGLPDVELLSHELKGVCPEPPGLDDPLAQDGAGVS
# experimentSummary: Radioligand binding at human A2A ARs, displacement of [3H]NECA, membranes of transfected CHO cells
# measurementParameters: competition with [3H]NECA, total binding, single experiment (S3 Fig); read-out: Ki, hA2A AR, representative single experiment
testReadout: Ki (µM)
Reply with just the number (in µM).

Reported Ki ( Cn1cc2c(nc(N)n3nc(-c4cnn(Cc5cccc(C(F)(F)F)c5)c4)nc23)n1 [compound 3] ) = 6.82

====

# experimentalTarget: hA3 AR (Homo sapiens)
# Construct: expressed in transfected cells; host or cells: CHO cells, stably transfected
# Sequence (P0DMS8 1-318): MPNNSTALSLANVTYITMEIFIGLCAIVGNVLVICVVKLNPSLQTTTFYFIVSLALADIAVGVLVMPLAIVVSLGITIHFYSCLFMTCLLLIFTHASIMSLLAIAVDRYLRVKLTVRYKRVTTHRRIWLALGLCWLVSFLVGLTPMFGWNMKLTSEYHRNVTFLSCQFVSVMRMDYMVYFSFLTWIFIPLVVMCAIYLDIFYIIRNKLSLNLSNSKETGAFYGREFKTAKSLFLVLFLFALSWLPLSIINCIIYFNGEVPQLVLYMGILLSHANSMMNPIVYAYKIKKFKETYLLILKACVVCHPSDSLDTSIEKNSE
# experimentSummary: Radioligand binding at human A3 ARs, displacement of [3H]HEMADO, membranes of transfected CHO cells
# measurementParameters: displacement of specific [3H]-HEMADO binding, CHO cells; geometric means with 95% confidence limits; read-out: hA3 AR (Ki nM)
testReadout: Ki (nM)

Consider the reported Ki for these compounds:
INSERT INTO assay_data (smiles, testreadout, unitssymbol, testresult) VALUES
  ('COc1ccc(CC(=O)Nc2nc3nn(C)cc3c3nc(-c4cnn(Cc5cccc(C(F)(F)F)c5)c4)nn23)cc1', 'Ki', 'nM', 53),
  ('Cn1cc2c(nc(NC(=O)Cc3ccccc3)n3nc(-c4cnn(Cc5cccc(C(F)(F)F)c5)c4)nc23)n1', 'Ki', 'nM', 11);

[P] Cn1cc2c(nc(NC(=O)c3ccccc3)n3nc(-c4cnn(Cc5cccc(C(F)(F)F)c5)c4)nc23)n1
[Q] Cn1cc2c(nc(NC(=O)Nc3ccccc3)n3nc(-c4cnn(Cc5cccc(C(F)(F)F)c5)c4)nc23)n1
[R] Cn1cc2c(nc(N)n3nc(-c4cnn(Cc5cccc(C(F)(F)F)c5)c4)nc23)n1
Highest Ki first, then in falling order down to the smallest. Please write the labels in the order that was asked for. R, P, Q
(R: 2360 nM, P: 138 nM, Q: 46.7 nM)

====

# experimentalTarget: hA3 AR (Homo sapiens)
# Construct: expressed in transfected cells; host or cells: CHO cells, stably transfected
# experimentSummary: Radioligand binding at human A3 ARs, displacement of [3H]HEMADO, membranes of transfected CHO cells
# measurementParameters: competition for [3H]HEMADO, total binding, single experiment (S1 Fig); read-out: Ki, hA3 AR, representative single experiment
testReadout: Ki (nM)
Number only, in nM; omit the unit.

INSERT INTO results (molecule, testreadout, testresult) VALUES
  ('Cn1cc2c(nc(NC(=O)Nc3ccccc3)n3nc(-c4cnn(Cc5cccc(C(F)(F)F)c5)c4)nc23)n1 [compound 4]', 'Ki', 39);

Now for the molecule whose Ki we want.
Cn1cc2c(nc(NC(=O)Cc3ccccc3)n3nc(-c4cnn(Cc5cccc(C(F)(F)F)c5)c4)nc23)n1 [compound 6] yielded Ki of 17

====

# experimentalTarget: hA3 AR (Homo sapiens, UniProt P0DMS8)
# Construct: expressed in transfected cells; host or cells: CHO cells, stably transfected
# experimentSummary: Radioligand binding at human A3 ARs, displacement of [3H]HEMADO, membranes of transfected CHO cells
# measurementParameters: ratio of Ki values; for reference compounds from literature affinities (Borea et al. unless otherwise indicated)
Counter-ions that a name gives are not always drawn.
testReadout: Ki, hA2a/hA3 (selectivity)

INSERT INTO results (compound, testreadout, testresult) VALUES
  ('Cn1cc2c(nc(N)n3nc(-c4cnn(Cc5cccc(C(F)(F)F)c5)c4)nc23)n1', 'Ki, hA2a/hA3 (selectivity)', 4),
  ('CCCn1c(=O)c2[nH]c(-c3cnn(Cc4cccc(F)c4)c3)nc2n(CCC)c1=O [compound 36, reference compound]', 'Ki, hA2a/hA3 (selectivity)', 3),
  ('Cn1cc2c(nc(NC(=O)Nc3ccncc3)n3nc(-c4ccco4)nc23)n1 [MRE3005F20 (HCl), reference compound]', 'Ki, hA2a/hA3 (selectivity)', 10000);

[a] CCCn1c(=O)c2[nH]c(-c3cnn(Cc4cccc(C(F)(F)F)c4)c3)nc2n(CCC)c1=O [compound 33, reference compound]
[b] Cn1c(=O)c2[nH]c(-c3cnn(Cc4cccc(C(F)(F)F)c4)c3)nc2n(C)c1=O [compound 1, reference compound]
Of a versus b , which is the one with smaller reported Ki, hA2a/hA3 (selectivity)? Identify your pick by its label. b
(b: 1, a: 4)

====

# experimentalTarget: hA1 AR (Homo sapiens, UniProt P30542)
# experimentSummary: Radioligand binding at human A1 ARs, displacement of [3H]CCPA, membranes of transfected CHO cells
# measurementParameters: displacement of specific [3H]-CCPA binding, CHO cells, n = 3–6; geometric means with 95% confidence limits; read-out: hA1 AR (Ki nM)
testReadout: Ki (nM)

INSERT INTO assay_data (smiles, testresult) VALUES
  ('Cn1cc2c(nc(NC(=O)Nc3ccccc3)n3nc(-c4cnn(Cc5cccc(C(F)(F)F)c5)c4)nc23)n1', 3890),
  ('COc1ccc(CC(=O)Nc2nc3nn(C)cc3c3nc(-c4cnn(Cc5cccc(C(F)(F)F)c5)c4)nn23)cc1', 4390);
